- MEASUREMENT_TARGET: HCV NS3-4A serine protease (full-length NS3-4A protein) (Hepatitis C virus genotype 1a (isolate 1) (HCV))
- TEST_PROTOCOL: HCV NS3-4A protease assay
- TEST_CONTEXT: strain HCV-1, fluorogenic peptide substrate, read-out: Protease assay Ex. 12 IC50
- Procedure: The inhibitory activity of certain compounds of Table A against HCV NS3-4A serine protease is determined in a homogenous assay using the full-length NS3-4A protein (genotype 1a, strain HCV-1) and a commercially available internally-quenched fluorogenic peptide substrate as described by Taliani, M., et al. 1996 Anal. Biochem. 240:60-67, which is incorporated by reference in its entirety.
OUTCOME_MEASURE: pIC50
As a rule, pIC50 stands for the negative log10 of the concentration, concentration in M.

Below, each entry is followed by its recorded pIC50 result.
* C=C[C@@H]1C[C@]1(NC(=O)C1C[C@@]2(CN1C(=O)[C@@H](NC(=O)c1cccc(C(=O)NC)c1)C(C)(C)C)C(C)(C)C21CCC1)C(=O)NS(=O)(=O)N1CCCC1 (stereo partly shown) [Compound 88] | 6.30
* C=C[C@@H]1C[C@]1(NC(=O)[C@@H]1C[C@@]2(CN1C(=O)[C@@H](NC(=O)[C@@H](NC(=O)OC(C)(C)C)C(C)(C)C)C(C)(C)C)C(C)(C)C21CCC1)C(=O)NS(=O)(=O)N1CCOCC1 [Compound 5] | 5.18
* C=C[C@@H]1C[C@]1(NC(=O)[C@@H]1C[C@@]2(CN1C(=O)[C@@H](NC(=O)[C@@H](NC(=O)[C@@H]1CCCN1C(=O)OCCF)C1CCCCC1)C1CCOCC1)C(C)(C)C21CCC1)C(=O)NS(=O)(=O)N1CCCC1 [Compound 76] | 7.10

In the following, a different compound is considered.
State its pIC50 for this compound: C=C[C@@H]1C[C@]1(NC(=O)[C@@H]1C[C@@]2(CN1C(=O)[C@@H](NC(=O)[C@@H](NC(=O)[C@@H]1CCCN1CC)C1CCCCC1)C1(C)CCOCC1)C(C)(C)C21CCC1)C(=O)NS(=O)(=O)N(CC)CC [Compound 154] 8.55

----------
Entries and their measured IC50 follow.
- MEASUREMENT_TARGET: HCV NS3-4A serine protease (full-length NS3-4A protein) (Hepatitis C virus genotype 1a (isolate 1) (HCV))
- TEST_PROTOCOL: HCV NS3-4A protease assay
- TEST_CONTEXT: strain HCV-1, fluorogenic peptide substrate, read-out: Protease assay Ex. 12 IC50
- Experimental: The inhibitory activity of certain compounds of Table A against HCV NS3-4A serine protease is determined in a homogenous assay using the full-length NS3-4A protein (genotype 1a, strain HCV-1) and a commercially available internally-quenched fluorogenic peptide substrate as described by Taliani, M., et al. 1996 Anal. Biochem. 240:60-67, which is incorporated by reference in its entirety.
Response body: numeric value in nM, unit text excluded.

Below, each entry is followed by its recorded IC50 result.
- C=C[C@@H]1C[C@]1(NC(=O)[C@@H]1C[C@@]2(CN1C(=O)[C@@H](NC(=O)[C@@H](NC(=O)c1cccnc1N(C)C)C1CCCCC1)C(C)(C)C)C(C)(C)C21CCC1)C(=O)NS(=O)(=O)N1CCCC1: 35
- C=C[C@@H]1C[C@]1(NC(=O)[C@@H]1C[C@@]2(CN1C(=O)[C@@H](NC(=O)[C@@H](NC(=O)[C@@H]1CCCN1C(C)=O)C1CCCCC1)C(C)(C)C)C(C)(C)C21CCC1)C(=O)NS(=O)(=O)N1CCCC1: 25
- C=C[C@@H]1C[C@]1(NC(=O)[C@@H]1C[C@@]2(CN1C(=O)[C@@H](NC(=O)[C@@H](NC(=O)[C@@H]1CCCCN1CC)C1CCCCC1)C(C)(C)C)C(C)(C)C21CCC1)C(=O)NS(=O)(=O)N(C)CC: 1.5
- C=C[C@@H]1C[C@]1(NC(=O)[C@@H]1C[C@@]2(CN1C(=O)[C@@H](NC(=O)C(Nc1cccnc1)C(C)(C)C)C(C)(C)C)C(C)(C)C21CCC1)C(=O)NS(=O)(=O)N1CCCC1 (stereo partly drawn): 1150

State its IC50 for this molecule: C=C[C@@H]1C[C@]1(NC(=O)[C@@H]1C[C@@]2(CN1C(=O)[C@@H](NC(=O)[C@@H](NC(=O)[C@@H]1CCCN1CC)C1CCCCC1)C(C)(C)C)C(C)(C)C21CCC1)C(=O)NS(=O)(=O)N1CCCCC1 5

State its IC50 for this molecule: C=C[C@@H]1C[C@]1(NC(=O)[C@@H]1C[C@@]2(CN1C(=O)[C@@H](NC(=O)[C@@H](NC(=O)C1CN(C(C)C)C1)C(C)(C)C)C(C)(C)C)C(C)(C)C21CCC1)C(=O)NS(=O)(=O)N1CCCC1 400

State its IC50 for this molecule: C=C[C@@H]1C[C@]1(NC(=O)[C@@H]1C[C@@]2(CN1C(=O)[C@@H](NC(=O)[C@@H](NC(=O)[C@@H]1CC(F)(F)CN1C(C)C)C1CCCCC1)C(C)(C)C)C(C)(C)C21CCC1)C(=O)NS(=O)(=O)N1CCCC1 30

State its IC50 for this molecule: C=C[C@@H]1C[C@]1(NC(=O)[C@@H]1C[C@@]2(CN1C(=O)[C@@H](NC(=O)[C@@H](NC(=O)[C@@H]1CCCN1CC)C1(C)CCCCC1)C(C)(C)C)C(C)(C)C21CCC1)C(=O)NS(=O)(=O)N(CC)CC 5

State its IC50 for this molecule: C=C[C@@H]1C[C@]1(NC(=O)[C@@H]1C[C@@]2(CN1C(=O)[C@@H](NC(=O)[C@@H](NC(=O)c1cccc(N(C)C)n1)C1CCCCC1)C(C)(C)C)C(C)(C)C21CCC1)C(=O)NS(=O)(=O)N1CCCC1 50

----------
- MEASUREMENT_TARGET: HCV NS3-4A serine protease (full-length NS3-4A protein) (Hepatitis C virus genotype 1a (isolate 1) (HCV), UniProt P26664)
- Sequence (P26664 1027-1657): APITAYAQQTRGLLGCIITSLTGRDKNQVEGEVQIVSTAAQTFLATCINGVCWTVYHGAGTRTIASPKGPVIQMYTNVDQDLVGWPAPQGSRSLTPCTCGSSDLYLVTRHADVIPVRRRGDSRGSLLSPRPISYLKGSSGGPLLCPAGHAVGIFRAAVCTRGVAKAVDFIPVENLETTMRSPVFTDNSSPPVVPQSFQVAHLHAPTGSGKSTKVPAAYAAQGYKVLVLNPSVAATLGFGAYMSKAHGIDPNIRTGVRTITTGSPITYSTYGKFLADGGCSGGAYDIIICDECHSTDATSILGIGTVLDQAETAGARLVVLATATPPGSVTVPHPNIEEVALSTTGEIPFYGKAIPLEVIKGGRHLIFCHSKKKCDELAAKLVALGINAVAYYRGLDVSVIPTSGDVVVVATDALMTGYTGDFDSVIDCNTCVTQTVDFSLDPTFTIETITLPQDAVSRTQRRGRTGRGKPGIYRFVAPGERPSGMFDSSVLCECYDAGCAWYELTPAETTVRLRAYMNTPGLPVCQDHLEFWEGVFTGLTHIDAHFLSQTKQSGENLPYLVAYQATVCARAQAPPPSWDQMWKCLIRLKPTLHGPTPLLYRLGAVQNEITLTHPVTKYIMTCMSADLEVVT
- Sequence (P26664 1658-1711 partner): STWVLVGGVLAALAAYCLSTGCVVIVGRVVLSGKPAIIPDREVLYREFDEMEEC
- TEST_PROTOCOL: HCV NS3-4A protease assay
- TEST_CONTEXT: strain HCV-1, fluorogenic peptide substrate, read-out: Protease assay Ex. 12 IC50
Entries and their measured IC50 follow.
Response body: numeric value in nM, unit text excluded.

- C=C[C@@H]1C[C@]1(NC(=O)[C@@H]1C[C@@]2(CN1C(=O)[C@@H](NC(=O)[C@@H](NC(=O)[C@@H]1CCCN1CC)C1CCCCC1)C(C)(C)C)C(C)(C)C21CCC1)C(=O)NS(=O)(=O)N(CC)CC: 1.2

State its IC50 for this compound: C=C[C@@H]1C[C@]1(NC(=O)[C@@H]1C[C@@]2(CN1C(=O)[C@@H](NC(=O)[C@@H](NC(=O)C(C)(C)N1CCCC1)C1CCCCC1)C(C)(C)C)C(C)(C)C21CCC1)C(=O)NS(=O)(=O)N1CCCC1 3

----------
Entries and their measured pIC50 follow.
- MEASUREMENT_TARGET: HCV NS3-4A serine protease (full-length NS3-4A protein) (Hepatitis C virus genotype 1a (isolate 1) (HCV))
- TEST_PROTOCOL: HCV NS3-4A protease assay
- Type: biochemical, HCV genotype 1a
- TEST_CONTEXT: strain HCV-1, fluorogenic peptide substrate, read-out: Protease assay Ex. 12 IC50
As a rule, pIC50 stands for the negative log10 of the concentration, concentration in M.

- C=C[C@@H]1C[C@]1(NC(=O)[C@@H]1C[C@@]2(CN1C(=O)[C@@H](NC(=O)[C@@H](NC(=O)[C@@H]1CCCCN1C(C)C)C(C)C)C(C)(C)C)C(C)(C)C21CCC1)C(=O)NS(=O)(=O)N(CC)CC: 8.85

In the following, a different compound is considered.
State its pIC50 for this compound: CC[C@@H]1C[C@]1(NC(=O)[C@@H]1C[C@@]2(CN1C(=O)[C@@H](NC(=O)[C@@H](NC(=O)[C@@H]1CCCCN1C(C)C)C1CCCCC1)C(C)(C)C)C(C)(C)C21CCC1)C(=O)NS(=O)(=O)N(C)C(C)C 8.10

----------
- MEASUREMENT_TARGET: HCV NS3-4A serine protease (full-length NS3-4A protein) (Hepatitis C virus genotype 1a (isolate 1) (HCV), UniProt P26664)
- TEST_PROTOCOL: HCV NS3-4A protease assay
- TEST_CONTEXT: strain HCV-1, fluorogenic peptide substrate, read-out: Protease assay Ex. 12 IC50
Entries and their measured IC50 follow.
Response body: numeric value in nM, unit text excluded.

* CC[C@@H]1C[C@]1(NC(=O)[C@@H]1C[C@@]2(CN1C(=O)[C@@H](NC(=O)[C@@H](NC(=O)[C@H]1CCCCN1C(C)C)C1CCCCC1)C(C)(C)C)C(C)(C)C21CCC1)C(=O)NS(=O)(=O)N(CC)CC | 7

In the following, a different compound is considered.
State its IC50 for this compound: C=C[C@@H]1C[C@]1(NC(=O)[C@@H]1C[C@@]2(CN1C(=O)[C@@H](NC(=O)[C@@H](NC(=O)[C@@H]1CCCCN1C(C)C)C1CCOCC1)C(C)(C)C)C(C)(C)C21CCC1)C(=O)NS(=O)(=O)N1CCCC1 15
